TGI overview
system: SR leukemia; assay: NCI tumour cell line growth inhibition, 48 h

>  <Compound>
CCCCCCCCCCCCCCCCOCC(COP(=O)(O)OCC1OC(n2cc(CC)c(=O)[nH]c2=O)CC1O)OC(=O)CCCCCCCCCCCCCCC (stereo not drawn)

>  <TGI>
> 100 µM

$$$$
>  <Compound>
C/C(=N/NC(=O)c1ccncc1)C(F)(F)F

>  <TGI>
> 100 µM

$$$$
>  <Compound>
N#Cc1cc2c(cc1C#N)SCCSCCCSCCS2

>  <TGI>
> 70.3 µM

$$$$
>  <Compound>
O=[N+]([O-])c1ccc(C2=NCCO2)cc1

>  <TGI>
> 100 µM

$$$$
>  <Compound>
CCN(CC)CC(=O)NC1c2ccccc2Oc2ccccc21

>  <TGI>
> 100 µM

$$$$
>  <Compound>
Clc1ccc(OCC2NC3CCC2CC3)cn1 (stereo not drawn)

>  <TGI>
44.6 µM

$$$$
>  <Compound>
O=C(O)c1ccc(N(/C=C/C(=O)C(F)(F)F)Cc2ccc(Cl)cc2)cc1

>  <TGI>
71.5 µM

$$$$
>  <Compound>
COc1ccc2c(O)c(Oc3ccc(Cl)cc3)c(=O)oc2c1

>  <TGI>
> 100 µM

$$$$
>  <Compound>
O=C(O)C(Cc1cc(I)c(O)c(I)c1)C1CCCCC1 (stereo not drawn)

>  <TGI>
> 100 µM

$$$$
>  <Compound>
C[C@@H]1C(=O)CC2C(C)(C)CCC[C@]2(C)[C@@]12CC[C@]1(C=COC1)O2 (stereo partly drawn)

>  <TGI>
59 µM

$$$$
>  <Compound>
O=C([CH-]C(=O)c1ccccc1)c1ccccc1.O=C([CH-]C(=O)c1ccccc1)c1ccccc1.O=C([CH-]C(=O)c1ccccc1)c1ccccc1.[Ga+3]

>  <TGI>
> 100 µM

$$$$
>  <Compound>
Sc1cccc2cccnc12

>  <TGI>
> 56.1 µM

$$$$
>  <Compound>
Cc1ccc(S(=O)(=O)NNC(=O)Nc2cccc(C(F)(F)F)c2)cc1

>  <TGI>
> 100 µM

$$$$
